Value source: the supplement of paper PMC10567573

Give protein stability index for every item shown.
B1: FBXO39 (parent)
chain: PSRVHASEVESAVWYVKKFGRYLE

- Variants of: B1
- assay remarks: protein stability index of a GFP-peptide fusion (GPS, HEK-293T) (PSI 1-6); higher = more stable;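 further: lentivirally expressed fusions sorted by FACS into six bins by GFP to DsRed ratio, PSI derived from sequencing read proportions per bin multiplied by bin number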
- applied conditions: c terminus: a fixed tail appended
Answers are plain numbers.

Known protein stability index results, listed for orientation:
| variant descriptor | protein stability index |
| --- | --- |
| H5Y | 1.43 |
| A12D | 2.13 |
| K18V | 1.75 |
| Y22W | 3.81 |
| F19M | 2.14 |

Please give protein stability index, item by item, for the list that follows.
1. A6T
2. S7I
3. S11G
4. E24K
5. V13W
6. S2Q

OUT:
[2.4, 1.84, 1.84, 2.13, 1.6, 2.18]

Batch request: protein stability index per item, same order as input.
1. V16H
2. S2N
3. K18G
4. V16K
5. A12S
6. V13N
7. E8H

OUT:
3.32
2.51
2.02
3.01
2.18
3.09
2.38

Go through the list and state protein stability index for each entry.
1. S11M
2. R3H
3. E8Q
4. V4C
5. E24R
6. S7L
7. H5D
8. P1A

OUT:
2.17
1.98
1.85
1.49
2.22
1.64
2.52
2.45

Look at each variant and report its protein stability index.
1. V9W
2. S7W
3. V4E
4. A12G
5. E10I
6. S7D
7. F19I

OUT:
1.61
1.59
2.52
2.02
1.85
2.68
1.88

Give protein stability index for each listed item.
1. R3P
2. K18E
3. A12Y
4. R21M
5. Y15C
6. R21K
7. K18F
8. R3D

OUT:
1: 2.49; 2: 2.37; 3: 1.65; 4: 1.37; 5: 1.74; 6: 1.87; 7: 1.95; 8: 2.9

Batch request: protein stability index per item, same order as input.
1. F19L
2. W14N
3. K17A
4. V16T
5. A6W
6. F19D
7. R21E
8. S11E

OUT:
[2.22, 3.68, 2, 2.43, 2.48, 3.27, 2.5, 2.57]

Could you report protein stability index for every entry in the following list?
1. Y15H
2. V9C
3. S2R
4. S2H

OUT:
1. 2.65
2. 2.48
3. 1.82
4. 1.76

Each of the following entries comes with a recorded value; kindly state protein stability index for each.
1. A12T
2. F19K
3. P1T
4. E10C
5. E24A
6. Y15F

OUT:
[2.08, 3.32, 2.01, 1.99, 1.59, 1.42]
